# maps each entry to its IC50
target: HCV NS5B RdRp genotype 1b (Hepatitis C virus genotype 1b); construct: The protein was expressed with an 18 amino acid C-terminal truncation to enhance the solubility; made in house; host or cells: E. coli BL21 (DE3), pET21a; assay: Modified HCV NS5B RdRp enzyme assay (with preincubation); assay type: biochemical; settings: modified method (with preincubation)
Sequence (Q9WMX2 2420-2992): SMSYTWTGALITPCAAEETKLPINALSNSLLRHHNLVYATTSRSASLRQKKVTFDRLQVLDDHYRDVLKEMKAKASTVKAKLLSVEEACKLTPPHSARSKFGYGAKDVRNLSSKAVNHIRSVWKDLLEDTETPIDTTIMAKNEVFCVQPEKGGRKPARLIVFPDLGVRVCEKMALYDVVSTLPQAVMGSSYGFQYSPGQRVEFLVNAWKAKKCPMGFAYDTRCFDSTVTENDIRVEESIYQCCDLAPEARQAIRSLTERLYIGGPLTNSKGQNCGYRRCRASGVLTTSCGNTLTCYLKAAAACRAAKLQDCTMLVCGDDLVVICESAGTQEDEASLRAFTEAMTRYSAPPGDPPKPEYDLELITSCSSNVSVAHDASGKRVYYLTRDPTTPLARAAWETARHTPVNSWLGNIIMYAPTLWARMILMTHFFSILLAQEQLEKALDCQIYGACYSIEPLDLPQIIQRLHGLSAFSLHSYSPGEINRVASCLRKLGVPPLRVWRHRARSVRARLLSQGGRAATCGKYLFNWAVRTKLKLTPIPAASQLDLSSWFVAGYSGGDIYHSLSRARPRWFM

> print(dat)
                                   compound  quantityname  observedvalue
1  CN(Cc1ccc(/C=C/C(=O)O)cc1)S(=O)(=O)NC(=O)c1ccc2c(C3CCCCC3)c3n(c2c1)CC(=O)Nc1ccccc1-3          IC50  20 to 1000 nM
2  O=C(O)c1ccc2c(C3CCCCC3)c3n(c2c1)C[C@@H](O)[C@@H](O)c1ccccc1-3          IC50  20 to 1000 nM

What measured IC50 goes with CCS(=O)(=O)NC(=O)c1ccc2c(C3CCCCC3)c3n(c2c1)CC(C(=O)N1CCOCC1)Cc1ccccc1-3 (stereo not shown) ?
20 to 1000 nM

What measured IC50 goes with CN(C)CCNC(=O)C1=Cc2ccccc2-c2c(C3CCCCC3)c3ccc(C(=O)O)cc3n2C1 ?
20 to 1000 nM

Where these numbers come from: patent US7348425B2
